As an illustration, consider measured IC50 for molecules on Methionine aminopeptidase 1 (Homo sapiens, UniProt P53582).
Give just the number in µM; leave the unit off.

Req: Report IC50 for CC(C)SCC[C@@H](N)[C@H](O)C(=O)NNC(=O)c1cccc(Cl)c1
Resp: 57

Req: Report IC50 for CC(C)SCC[C@@H](N)[C@H](O)C(=O)N[C@@H](C)c1cccc2ccccc12
Resp: 12

Req: Report IC50 for CC(C)CSC[C@@H](N)[C@H](O)C(=O)NNC(=O)c1cccc(Cl)c1
Resp: 8.1

Req: Report IC50 for CCSCC[C@@H](N)[C@H](O)C(=O)N[C@@H](C)c1cccc2ccccc12 [bestatin-type inhibitor, 4]
Resp: 0.37
